Molecular target: Rat Brain Homogenate AChE (Rattus norvegicus)
Sequence (P37136 32-614): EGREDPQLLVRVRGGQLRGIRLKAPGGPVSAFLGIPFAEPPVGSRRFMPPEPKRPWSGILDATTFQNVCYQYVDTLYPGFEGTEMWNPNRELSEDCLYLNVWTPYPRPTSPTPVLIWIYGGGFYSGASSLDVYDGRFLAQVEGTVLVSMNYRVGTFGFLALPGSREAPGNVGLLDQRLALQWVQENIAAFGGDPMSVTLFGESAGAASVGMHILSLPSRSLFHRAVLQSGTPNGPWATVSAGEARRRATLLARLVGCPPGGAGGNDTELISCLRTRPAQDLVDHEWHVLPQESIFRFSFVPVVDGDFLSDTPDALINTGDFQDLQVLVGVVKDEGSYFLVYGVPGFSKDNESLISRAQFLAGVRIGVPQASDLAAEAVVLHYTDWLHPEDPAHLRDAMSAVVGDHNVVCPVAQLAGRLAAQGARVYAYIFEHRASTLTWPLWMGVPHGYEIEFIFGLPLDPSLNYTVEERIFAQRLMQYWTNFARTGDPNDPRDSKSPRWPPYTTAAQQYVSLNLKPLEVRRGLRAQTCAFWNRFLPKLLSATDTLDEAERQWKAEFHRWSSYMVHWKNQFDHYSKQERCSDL
pIC50: −log10 of the molar value.
Tag: True if measured pIC50 is not below 5, False if it is.

Consider the following illustrative entries.
Clc1ccc2c(c1)N=C1CCCCCN1C2 [3-Cl, H2] | True
Clc1cc(Cl)c2c(c1)N=C1CCCCCN1C2 [1,3-DiCl, H2] | True
c1ccc2c(c1)CN1CCCCCC1=N2 [H, H2] | False
Clc1ccc(Cl)c2c1CN1CCCCCC1=N2 [1,4-DiCl, H2] | False
Clc1cc2c(cc1Cl)N=C1CCCCCN1C2 [2,3-DiCl, H2] | False

Query block: Hello, I need to know if Clc1cc(Cl)c2c(c1)CN1CCCCCC1=N2 [2,4-DiCl, H2] has measured pIC50 not below 5. Thanks!
Result block: True

Query block: # bool: pIC50 of Clc1ccc2c(c1Cl)N=C1CCCCCN1C2 [3,4-DiCl, H2] >= 5
Result block: False
